B1: 2K2A (parent)
chain: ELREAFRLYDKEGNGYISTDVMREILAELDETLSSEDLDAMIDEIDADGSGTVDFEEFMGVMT

Variants of: B1
assay.info: folding stability dG (cDNA display proteolysis); higher = more stable
experimental.setup: PBS, room temperature

mutation.code: D30Y
folding stability dG, kcal/mol: 2.36
--
mutation.code: T32W
folding stability dG, kcal/mol: 1.62
--
mutation.code: M59L
folding stability dG, kcal/mol: 1.91
--
mutation.code: Y9H
folding stability dG, kcal/mol: 1.59
--
mutation.code: G15N
folding stability dG, kcal/mol: 0.741
--
mutation.code: A5C
folding stability dG, kcal/mol: 3.22
--
mutation.code: E56Y
folding stability dG, kcal/mol: 2.02
--
mutation.code: E4M
folding stability dG, kcal/mol: 1.39
--
mutation.code: F6D
folding stability dG, kcal/mol: 0.525
--
mutation.code: D46R
folding stability dG, kcal/mol: 0.799
--
mutation.code: T63S
folding stability dG, kcal/mol: 1.88
--
mutation.code: D48M
folding stability dG, kcal/mol: 1.33
--
mutation.code: G15D
folding stability dG, kcal/mol: 0.537
--
mutation.code: T19N
folding stability dG, kcal/mol: 1.73
--
mutation.code: V21L
folding stability dG, kcal/mol: 2.19
--
mutation.code: F6V
folding stability dG, kcal/mol: 0.529
--
mutation.code: D30E
folding stability dG, kcal/mol: 0.964
--
mutation.code: G60D
folding stability dG, kcal/mol: 1.75
--
mutation.code: D54Y
folding stability dG, kcal/mol: 2
--
mutation.code: A47G
folding stability dG, kcal/mol: 1.57
--
mutation.code: V21F
folding stability dG, kcal/mol: 1.41
--
mutation.code: E12P
folding stability dG, kcal/mol: 0.544
--
mutation.code: E24C
folding stability dG, kcal/mol: 2.6
--
mutation.code: S50E
folding stability dG, kcal/mol: 0.94
--
mutation.code: G60N
folding stability dG, kcal/mol: 2.15
--
mutation.code: D39E
folding stability dG, kcal/mol: 1.4
--
mutation.code: I25A
folding stability dG, kcal/mol: 0.872
--
mutation.code: D37K
folding stability dG, kcal/mol: 1.71
--
mutation.code: K11V
folding stability dG, kcal/mol: 2.1
--
mutation.code: I42S
folding stability dG, kcal/mol: -0.099
--
mutation.code: E24L
folding stability dG, kcal/mol: 2.55
--
mutation.code: A40C
folding stability dG, kcal/mol: 1.93
--
mutation.code: V53W
folding stability dG, kcal/mol: 0.916
--
mutation.code: F6Q
folding stability dG, kcal/mol: 0.462
--
mutation.code: G60Q
folding stability dG, kcal/mol: 2.32
--
mutation.code: E57T
folding stability dG, kcal/mol: 2.46
--
mutation.code: I45P
folding stability dG, kcal/mol: -0.366
--
mutation.code: M59F
folding stability dG, kcal/mol: 2.03
--
mutation.code: D48V
folding stability dG, kcal/mol: 1.18
--
mutation.code: R23I
folding stability dG, kcal/mol: 0.365
--
mutation.code: L33G
folding stability dG, kcal/mol: -0.126
